settings: human gut metagenome, 24 h, 2 µM; note: call rule not given here
READOUT_NAME: Bacterial Biotransformation

[[record]]
compound = "C#C[C@]1(OC(C)=O)CC[C@H]2[C@@H]3CCC4=C/C(=N/O)CC[C@@H]4[C@H]3CC[C@@]21CC [NORGESTIMATE]"
readout_name = "Bacterial Biotransformation"
observed_value = "Compound metabolized"

[[record]]
compound = "C[N+]12CCC(CC1)C(OC(=O)C(O)(c1ccccc1)c1ccccc1)C2.[Br-] (configuration not stated) [CLIDINIUM BROMIDE]"
readout_name = "Bacterial Biotransformation"
observed_value = "Compound NOT metabolized"

[[record]]
compound = "COCCCC/C(=N\\OCCN)c1ccc(C(F)(F)F)cc1.O=C(O)/C=C\\C(=O)O [FLUVOXAMINE MALEATE]"
readout_name = "Bacterial Biotransformation"
observed_value = "Compound NOT metabolized"

[[record]]
compound = "O=C1CC2(CCCC2)CC(=O)N1CCCCN1CCN(c2ncccn2)CC1 [BUSPIRONE]"
readout_name = "Bacterial Biotransformation"
observed_value = "Compound NOT metabolized"

[[record]]
compound = "C#C[C@]1(OC(C)=O)CC[C@H]2[C@@H]3CCC4=C[C@@H](OC(C)=O)CC[C@@H]4[C@H]3CC[C@@]21C [ETHYNODIOL DIACETATE]"
readout_name = "Bacterial Biotransformation"
observed_value = "Compound metabolized"

[[record]]
compound = "CC(=O)CCCCn1c(=O)c2c(ncn2C)n(C)c1=O [PENTOXIFYLLINE]"
readout_name = "Bacterial Biotransformation"
observed_value = "Compound NOT metabolized"

[[record]]
compound = "CN(C)CCOC(C)(c1ccccc1)c1ccccn1.O=C(O)CCC(=O)O (configuration not stated) [DOXYLAMINE SUCCINATE]"
readout_name = "Bacterial Biotransformation"
observed_value = "Compound NOT metabolized"

[[record]]
compound = "O=C1CN2Cc3c(ccc(Cl)c3Cl)N=C2N1 [ANAGRELIDE]"
readout_name = "Bacterial Biotransformation"
observed_value = "Compound NOT metabolized"

[[record]]
compound = "N[C@@H](Cc1ccc(N(CCCl)CCCl)cc1)C(=O)O"
readout_name = "Bacterial Biotransformation"
observed_value = "Compound NOT metabolized"

[[record]]
compound = "COc1ccc(Cc2nccc3cc(OC)c(OC)cc23)cc1OC [PAPAVERINE]"
readout_name = "Bacterial Biotransformation"
observed_value = "Compound metabolized"

[[record]]
compound = "CSc1ccc2c(c1)C(N1CCN(C)CC1)Cc1ccccc1S2.O=C(O)/C=C\\C(=O)O (configuration not stated)"
readout_name = "Bacterial Biotransformation"
observed_value = "Compound NOT metabolized"

[[record]]
compound = "OC(c1cc(C(F)(F)F)nc2c(C(F)(F)F)cccc12)C1CCCCN1 (configuration not stated) [MEFLOQUINE]"
readout_name = "Bacterial Biotransformation"
observed_value = "Compound metabolized"

[[record]]
compound = "CN(C)C(=O)Oc1cc(OC(=O)N(C)C)cc(C(O)CNC(C)(C)C)c1 (configuration not stated) [BAMBUTEROL]"
readout_name = "Bacterial Biotransformation"
observed_value = "Compound metabolized"

[[record]]
compound = "CC(C)[C@H]1CC[C@H](C(=O)N[C@H](Cc2ccccc2)C(=O)O)CC1 [NATEGLINIDE]"
readout_name = "Bacterial Biotransformation"
observed_value = "Compound metabolized"

[[record]]
compound = "O=C(O)CCC(=O)O.O=C(O[C@H]1CN2CCC1CC2)N1CCc2ccccc2[C@@H]1c1ccccc1 [SOLIFENACIN SUCCINATE]"
readout_name = "Bacterial Biotransformation"
observed_value = "Compound NOT metabolized"

[[record]]
compound = "COc1ccc(/C=C/C(=O)Nc2ccccc2C(=O)O)cc1OC"
readout_name = "Bacterial Biotransformation"
observed_value = "Compound NOT metabolized"

[[record]]
compound = "CC[C@@]1(O)C(=O)OCc2c1cc1n(c2=O)Cc2cc3c(CN(C)C)c(O)ccc3nc2-1 [TOPOTECAN]"
readout_name = "Bacterial Biotransformation"
observed_value = "Compound NOT metabolized"

